- MEASUREMENT TARGET: 3-oxo-5-alpha-steroid 4-dehydrogenase 1 (Homo sapiens, UniProt P18405)
- Sequence (P18405 whole entry): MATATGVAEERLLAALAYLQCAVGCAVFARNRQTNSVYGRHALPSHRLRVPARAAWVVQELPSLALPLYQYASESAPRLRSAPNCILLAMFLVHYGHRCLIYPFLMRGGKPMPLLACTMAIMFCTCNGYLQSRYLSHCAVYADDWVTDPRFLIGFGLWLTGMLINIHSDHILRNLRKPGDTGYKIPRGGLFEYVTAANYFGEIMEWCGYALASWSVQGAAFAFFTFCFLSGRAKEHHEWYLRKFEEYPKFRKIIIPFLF
- EXPERIMENTAL DETAILS: Inhibitory activity against Steroid 5-alpha-reductase type I in human scalp homogenates
- Type: tissue-based
REPORTED ENDPOINT: IC50 (µM)
The reply should contain only the number, in µM.

As a guide, the following entries are already answered.
Value wanted: IC50 (3-oxo-5-alpha-steroid 4-dehydrogenase 1 (Homo sapiens, UniProt P18405)) of entry CN1C(=O)CC[C@@H]2c3ccc(Cl)cc3CC[C@H]21 [BEXLOSTERIDE]
0.0023

Kindly state the measured IC50 obtained for "CC1=C2CCc3cc(Cl)ccc3N2CCC1=O" with 3-oxo-5-alpha-steroid 4-dehydrogenase 1 (Homo sapiens, UniProt P18405).
0.041

# ---- query molecule ----
Test system 3-oxo-5-alpha-steroid 4-dehydrogenase 1 (Homo sapiens, UniProt P18405); read-out IC50; what value for "CC1=C2CCc3cc(C)ccc3N2CCC1=O" ?
0.041

Source of measurements: ChEMBL document CHEMBL1133680
